Please respond with reported growth for every item in the list.
test system: K-562 leukemia; test: NCI-60 one-dose screen, 48 h (100 = growth as untreated, 0 = no growth, -100 = all killed); conditions: 10 µM
Compounds without any hit were thinned out: in the full panel of roughly 83,000, 20% have a hit.
Give bare numbers, in %.

Use these answered entries as a reference point.
C#CCSc1nnnn1-c1ccc(Br)c(C)c1 ... 86.3
CN(C)c1ccc2nc3ccc(=N)cc-3sc2c1 ... 20.1
C#C[C@H]1CCCCCC1O (stereo partly drawn) ... 101
CCOC(=O)C1OC1c1ccccc1 (stereo not drawn) ... 103
O=C(O)c1ccnc(Br)c1 ... 109

List the reported growth of each compound below.
1. Nc1ccc(CC(=O)O)c(N)c1
2. O=C(O)C(Cc1ccccc1)C(=O)O
3. CCc1nn(Cc2ccccc2)c2nc(C)c(CCc3ccccc3)c(Cl)c12
4. O=c1[nH]n(-c2ccccc2)c(=O)cc1Cl
5. O=c1cc(-c2ccccc2)[nH]c2c1CCCC2
6. CCOC(=O)c1cc(/C=C/c2cccc(Cl)c2)on1
7. Cc1ccc(C(=O)c2ccccc2)c(C)c1

Reply text:
1. 104
2. 108
3. 61.1
4. 103
5. 23.2
6. 31.6
7. 125

Inquiry: Form entry - test system: K-562 leukemia; read-out: growth; compound: COc1cc2c(cc1OC)[C@H](C(=O)O)[C@@H](c1ccc(OC(C)C)c(OC)c1)N(C)C2=O
Reply text: 99.6
